Assignment: determine reported IC50 for the given compounds.
- Target entity: recombinant human NF-kappaB-inducing kinase (NIK/MAP3K14) (Homo sapiens (Human))
- Sequence (Q99558 whole entry): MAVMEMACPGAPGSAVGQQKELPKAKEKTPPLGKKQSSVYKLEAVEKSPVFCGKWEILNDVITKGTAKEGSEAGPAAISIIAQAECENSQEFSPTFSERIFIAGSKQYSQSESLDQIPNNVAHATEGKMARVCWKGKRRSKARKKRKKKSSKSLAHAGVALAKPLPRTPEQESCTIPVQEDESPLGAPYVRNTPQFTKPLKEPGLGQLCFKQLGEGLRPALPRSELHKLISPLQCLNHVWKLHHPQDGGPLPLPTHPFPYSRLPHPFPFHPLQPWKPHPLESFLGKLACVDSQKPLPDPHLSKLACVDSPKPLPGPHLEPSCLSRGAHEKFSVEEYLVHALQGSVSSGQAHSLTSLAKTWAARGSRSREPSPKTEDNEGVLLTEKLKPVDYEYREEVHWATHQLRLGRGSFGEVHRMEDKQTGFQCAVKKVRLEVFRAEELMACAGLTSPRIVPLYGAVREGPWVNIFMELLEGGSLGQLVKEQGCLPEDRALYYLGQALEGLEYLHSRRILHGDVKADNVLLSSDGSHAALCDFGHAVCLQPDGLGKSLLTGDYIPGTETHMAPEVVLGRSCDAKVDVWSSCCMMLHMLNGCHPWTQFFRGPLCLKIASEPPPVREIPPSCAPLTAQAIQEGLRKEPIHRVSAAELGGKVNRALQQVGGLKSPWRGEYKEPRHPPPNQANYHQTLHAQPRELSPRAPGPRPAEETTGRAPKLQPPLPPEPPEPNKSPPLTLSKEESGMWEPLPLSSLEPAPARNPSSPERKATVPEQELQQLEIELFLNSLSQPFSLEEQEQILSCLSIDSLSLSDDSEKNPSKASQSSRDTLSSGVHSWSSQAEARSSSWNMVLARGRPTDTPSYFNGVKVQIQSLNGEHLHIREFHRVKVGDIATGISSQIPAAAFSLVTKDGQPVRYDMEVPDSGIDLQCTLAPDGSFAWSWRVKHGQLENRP
- Assay method text: Inhibition of auto-phosphorylation of recombinant human NIK/MAP3K14 (AlphaScreen)
- Assay conditions: NIK auto-phosphorylation, 5 μM ATP, 1 nM NIK, 2 h at 25° C.; average of values

Test system recombinant human NF-kappaB-inducing kinase (NIK/MAP3K14) (Homo sapiens (Human)); read-out IC50; what value for Cc1ccc(C#C[C@]2(O)CCN(C)C2=O)cc1-c1nc2c(N)ncnc2s1 ?
≤ 0.5 nM

How about this compound: CN1CC[C@@](O)(C#Cc2cccc(-c3ncc4c(-c5cnn(CC(C)(C)O)c5)cnc(N)c4n3)c2)C1=O
≤ 0.5 nM

How about this compound: Cc1cnc(N)c2nc(-c3cccc(C#C[C@@](C)(O)c4nccs4)c3)ncc12
≤ 0.5 nM
